The measurements presented in this section are drawn from ChEMBL document CHEMBL1201862.

- Tested on: EKVX
- assay-method-text: NCI tumour cell line growth inhibition, 48 h
Active and inactive are the calls of the source. No stated cut-off is given here; in the data, active = GI50 up to about 1.1 µM and inactive = higher.
measurement-name: GI50

Observe how each entry below is paired with its result.
compound	measurement-name	observed-value
N=C(N)c1csc([C@@H]2O[C@H](CO)[C@@H](O)[C@H]2O)n1	GI50	> 100 µM (inactive)
CCCCc1c(N(C)C)c(OC(C)=O)c(-c2cn(C)c3ccccc23)oc1=O	GI50	26.1 µM (inactive)
COc1ccc(-c2c(-c3ccc(OC)cc3)n3c(=O)n(C)c(=O)n23)cc1	GI50	34.9 µM (inactive)
CCOc1ccc2c(c1)[n+]([O-])c(-c1ccccc1)c(N)[n+]2[O-]	GI50	89.1 µM (inactive)
CCc1cc(-c2nsc(=O)o2)c(S(=O)(=O)CC)s1	GI50	> 100 µM (inactive)

Recorded GI50 for O=c1cc(CSc2c(-c3ccccc3)c(=O)n(-c3ccccc3)c(=S)n2-c2ccccc2)[nH]c(=O)[nH]1 , please?
> 100 µM (inactive)

Recorded GI50 for NNC(=S)N/N=C(\c1nc2ccc(Cl)cc2nc1O)C(O)c1ccc(Cl)cc1Cl (configuration not stated) , please?
> 100 µM (inactive)

Recorded GI50 for O=C1CCC(C(=O)O)C2=C1CCCC2 (configuration not stated) , please?
> 100 µM (inactive)

Recorded GI50 for CC1=C(C(=O)Nc2ccccc2)C(c2cccc3ccccc23)C(C(=O)Nc2ccccc2)=C(C)N1 , please?
11.8 µM (inactive)

Recorded GI50 for [O-][n+]1c2ccccc2[n+]([O-])c2cc(Br)ccc21 , please?
16.7 µM (inactive)
